- System: HCT-116 colon
- Experimental details: NCI-60 one-dose screen, 48 h
- Assay conditions: 10 µM
- Experimental: Growth inhibition of the HCT-116 human tumor cell line is measured as a screen for anti-cancer activity. Cells are grown in 96 well plates and exposed to the test compound for 48 hours. Compounds are tested at a single concentration, which is 10^-5 M for most compounds. The reported endpoint is percent growth (GI% or GIPRCNT), where numbers from 0 - 100% represent growth inhibition, and numbers from -100% - 0 represent cell death. For example, a value of 40 represents 60% growth inhibition. […]
This is part of a sample that, as a whole, favours compounds with a hit. Of some 83,000 tested, about 20% had one in any assay. Active and inactive are the calls of the source. Rule for the calls: active = growth percent below 10; inactive = the rest.
Hi there, use one of these labels in your reply, thanks! true for active, false for inactive

Record excerpt, results attached:
Exam item: Hey, what did the test say about COc1cccc2c1cc([N+](=O)[O-])c1c(C(=O)O)cc3c(c12)OCO3 ?
Marked response: false

Exam item: Outcome logged for COc1cc2c(O[C@@H]3OC[C@H](OC(C)=O)[C@H](OC(C)=O)[C@H]3O)c3c(c(-c4ccc5c(c4)OCO5)c2cc1OC)C(=O)OC3 in this assay:
Marked response: true

Exam item: Please indicate how the test categorized COC(=O)[C@H]1[C@@H](O)[C@@]2(O)c3c(OC)cc(OC)cc3O[C@@]2(c2ccc(OC)cc2)[C@@H]1c1ccccc1 .
Marked response: true

Continuing:
Exam item: Which outcome did this test record for the compound CC1=C(CN(O)C(N)=O)C2=C(C)C3(CC3)[C@@](C)(O)C(=O)C2=C1 ?
Marked response: true

====

Measured growth, listed per entry for reference.
- Test system: HL-60(TB) leukemia
- Experimental details: NCI-60 one-dose screen, 48 h (100 = growth as untreated, 0 = no growth, -100 = all killed)
- Assay conditions: 10 µM unless noted
- Protocol: Growth inhibition of the HL-60(TB) human tumor cell line is measured as a screen for anti-cancer activity. Cells are grown in 96 well plates and exposed to the test compound for 48 hours. Compounds are tested at a single concentration, which is 10^-5 M for most compounds. The reported endpoint is percent growth (GI% or GIPRCNT), where numbers from 0 - 100% represent growth inhibition, and numbers from -100% - 0 represent cell death. For example, a value of 40 represents 60% growth inhibition. […]
About 83,000 compounds went through this panel and 20% of them were active in at least one assay; those are over-represented in the sample as a whole.
Just the number in %, nothing appended.

Here are 2 compounds together with their reported answers.
Exam item: // growth lookup, key: Cc1nn(-c2ccccc2)c2nc(CCl)[nH]c(=O)c12
Marked response: 33.1

Exam item: Look at this compound and give its reported growth. CCOC(=O)C(=O)CC(=O)N1C(=S)NC(=O)C1CC(C)C (stereo not given)
Marked response: 111

***
Exam item: Need growth, item CCc1cc(O)ccc1Nc1cc(-c2ccc(-n3cccn3)cc2)[nH]n1
Marked response: 58.6

Exam item: Quick check: growth of Cn1cc(-c2cc(N)n3nc(-c4cn(C)c5ccc(Br)cc45)cc3n2)c2cc(Br)ccc21 ?
Marked response: 26.7

Exam item: What value of growth has been reported for the following compound? O=C(CSc1nnc(-c2ccc(Cl)cc2)n1-c1ccccc1)Nc1cccc(Cl)c1
Marked response: 89.8

====

- Tested on: HL-60(TB) leukemia
- Experimental details: NCI-60 one-dose screen, 48 h (100 = growth as untreated, 0 = no growth, -100 = all killed)
- Assay conditions: 10 µM unless noted
This is part of a sample that, as a whole, favours compounds with a hit. Of some 83,000 tested, about 20% had one in any assay.
Please mark satisfied if the recorded growth is equal to or greater than 30%, and not satisfied if it falls below.

As a guide, the following entries are already answered.
Exam item: In plain terms: is recorded growth at least 30% for COc1ccc(Cn2cc3c(c2-c2ccccc2)CCCc2cnoc2-3)cc1[N+](=O)[O-] ?
Marked response: not satisfied

Exam item: Hello, I need to know if CCC(CC)n1c(=O)c(SC2=NC3C(NN2)N(CC)C(=O)N3CC)c(C(=O)O)c2ccccc21 (stereo not given) has measured growth not below 30%. Thanks!
Marked response: not satisfied

Exam item: Can Cc1cc(F)cc(NS(=O)(=O)c2ccc(-c3cnc(C4CC4)o3)cc2)c1 be said to have growth at or above 30%?
Marked response: not satisfied

Exam item: Check the entry Cc1ccc(S(=O)(=O)c2nc(-c3ccc(F)cc3)oc2S(C)(=O)=O)cc1 : does growth equal or exceed 30%?
Marked response: satisfied

New cases:
Exam item: Evaluate C[C@@H]1C[C@H]2C(=O)O[C@@H](C)C(NC(=O)[C@H](Cc3cc(F)cc(F)c3)NC(=O)Nc3ccc(Cl)cc3F)C(=O)N3CCC[C@H]3C(=O)N3CCCC[C@H]3C(=O)N[C@@H](CO)C(=O)N2C1 (stereo not given in full) : growth at minimum 30%?
Marked response: not satisfied

FYI, the data here is from PubChem BioAssay (NCI).
